Values were extracted from patent US20200046658A1.

Tested on: mouse skeletal muscle cells (C2C12)
method-summary: Western blot of p-AMPK, PPAR-δ and PGC-1α in differentiating C2C12 cells
Type: cell-based
condition: C2C12, 50 μM, versus untreated control
Where a name gives a salt, the structure may show the parent alone.

compound: CCc1ccc(OC)c(C(O)CNC(=O)CN)c1 (stereo not shown) [Compound 9, hydrochloride]
expression of p-AMPK: significantly increased

compound: COc1cc(OC)cc(C(O)CNC(=O)CN)c1 (stereo not shown) [Compound 8, hydrochloride]
expression of p-AMPK: significantly increased

compound: NCC(=O)NCC(O)c1ccccc1 (stereo not shown) [Compound 10, hydrochloride]
expression of p-AMPK: significantly increased
